ASSAY NAME: amyloid nucleation score (Sup35N fusion, yeast selection) (log enrichment); library NNK1; higher = more nucleation; inactive = no reads after selection;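 further: zero at mode of non-aggregating sequences after 7 days selection at 30°C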

MACROMOLECULE SEQUENCE	amyloid nucleation score
VIMPGRYVNLAHRLDACSVH	inactive
GRLIGDSWLGYTKSGPGRKR	inactive
NVSSIFITQY	inactive

----------
ASSAY NAME: amyloid nucleation score (Sup35N fusion, yeast selection) (log enrichment); library NNK1; higher = more nucleation; inactive = no reads after selection
Output 1 for amyloid nucleation score not less than 0.4; output 0 otherwise.

Worked cases, answers included:
SUBSTANCE	ASSIGNED CATEGORY
LKELYG	0
VLKHFGFCMLPNISAY	0

amyloid nucleation score >= 0.4 for FMLVMFYWIYFNYSNVFRD ?
0

Another substance to check: SIWVIRPAAGKSEGSISNVQ
1

Another substance to check: AVITLQVHLLPEYFQAACIT
0

Another substance to check: VPTCMRVYIRGNSHNGMLAA
1

Another substance to check: ISRVIFLR
1

Another substance to check: HPFYIFAVYIFPYHCLSCSL
0
